# Test system: PRMT1 (protein arginine N-methyltransferase 1)
# Test Method Notes: PRMT1 binders on small-molecule microarrays, primary screen, biochemical, small-molecule microarray, 635 nm fluorescence (AID 1088)
# Condition Context: small-molecule microarray binding, higher = more signal
For each record, write down the corresponding composite z-score.

Check out these entries, answers already filled in.
[
  {
    "Compound": "CN(C)CCCNC(=O)[C@@]1(c2ccc([N+](=O)[O-])cc2)CC(=O)N(C2CCCCC2)[C@@H]1c1ccc(CO)cc1",
    "composite z-score": 1.54
  },
  {
    "Compound": "O=C1OCCC=C[C@H]2OC34C=CCN(CCN5CCOCC5)C(=O)[C@H]3N(CCCCCCO)C(=O)[C@@H]4C12 (stereo partly specified)",
    "composite z-score": 0.358
  },
  {
    "Compound": "COCCOC(=O)N1C(=O)[C@@]2(c3cc(C#CC4(O)CCCCCC4)ccc31)[C@H](c1ccc(O)cc1)N1[C@H](c3ccccc3)[C@H](c3ccccc3)OC(=O)[C@H]1[C@@H]2C(=O)Nc1nc2ccccc2s1",
    "composite z-score": 1.35
  },
  {
    "Compound": "COC(=O)c1c(CC[C@@H](CO)NC(=O)N2CCC[C@H]2Cn2cc(-c3ccccn3)nn2)oc(C(C)=O)c1C(=O)OC",
    "composite z-score": 0.986
  }
]

Record composite z-score for all entries; do not skip any.
1. O=C(O)[C@@]1(CCS(=O)(=O)c2ccccc2)COC(c2ccc(OCCCO)cc2)=N1
2. CN1C2C=C(CCCO)C(C3C(=O)N(C(N)=O)C(=O)C32)C1c1ccc(CN2CCCC2)cc1 (stereo unspecified)
3. CN(C)CCCC[C@@H]1NC(=O)[C@H]2C[C@@H](C(=O)NCCCCCNC(=O)CS)[C@@H](c3cccc(OCCO)c3)N2C1=O
4. C=CCOC(=O)[C@H]1[C@@H]2C(=O)O[C@@H](c3ccccc3)[C@@H](c3ccccc3)N2[C@@H](c2ccc(OCCOC(=O)[C@H]3C[C@H]4C(=O)N5CCC[C@H]5C(=O)N4[C@H]3c3ccc(O)cc3)cc2)[C@]12C(=O)Nc1ccccc12
5. CCCC#C[Si](O[C@H](CC)c1cn([C@H](CO)Cc2ccccc2)nn1)(C(C)C)C(C)C

result:
-0.16
-0.378
1.18
1.54
0.869

Record composite z-score for all entries; do not skip any.
1. O=C1C2C=CC(C(O)C3CCCCC3)N(Nc3ccc([N+](=O)[O-])cc3)C2C(=O)N1c1ccccc1 (stereo unspecified)
2. CC(C)[C@@H](CO)NC(=O)[C@H]1[C@@H](c2ccccc2)N(c2ccccc2)O[C@@H]1C
3. COCCn1c(C(=O)N2CCCC2)cc2c1C[C@H]1CN(C(=O)c3ccccc3)[C@@](Cc3ccc(F)cc3)(C(=O)OC)[C@@H]21
4. CCOC(=O)C1=CCC(c2ccccc2)N(S(=O)(=O)CC[Si](C)(C)C)C1 (stereo unspecified)
5. [N-]=[N+]=NCc1ccccc1[C@@H]1OC(c2ccc(OCCCO)cc2)=N[C@]1(CCS(=O)(=O)c1ccccc1)C(=O)NCCN1CCOCC1
6. COC(=O)[C@@]1(Cc2ccccc2)[C@H]2c3cc(C(=O)N4CCCC4)n(Cc4nc5ccccc5[nH]4)c3C[C@H]2CN1C(=O)c1ccccc1

result:
1: 1.56; 2: -0.159; 3: 1.12; 4: -0.0595; 5: 1.53; 6: 1.54
